The values you see were collected from ChEMBL document CHEMBL1128280.

Test: Concentration required to inhibit 50% growth of human colon carcinoma cell line (HT-29)
Type: functional, cell-based
Reported pIC50 values for the following compounds.
API: returns pIC50 as number; meaning -log10 of concentration in mol/L.

Recorded pIC50, per entry:
For record CC[C@@]1(O)C(=O)OCc2c1cc1n(c2=O)Cc2c-1nc1c[n+]([O-])c(CN)cc1c2C the listed pIC50 is 6.14

For record CCc1c2c(nc3cnc(C(=N)NO)cc13)-c1cc3c(c(=O)n1C2)COC(=O)[C@]3(O)CC the listed pIC50 is 8.15

For record CC[C@@]1(O)C(=O)OCc2c1cc1n(c2=O)Cc2c-1nc1cnc(C#CCN)cc1c2C the listed pIC50 is 6.45

***
For record CCc1c2c(nc3cnc(C(=N)N)cc13)-c1cc3c(c(=O)n1C2)COC(=O)[C@]3(O)CC the listed pIC50 is 6.51
